# Activity annotations
- Species on record: Oryctolagus cuniculus
- Assay overview: Binding affinity to rabbit bone assessed as drug level bound to bone powder at 0.25 to 4 ug/ml after 24 hrs
- Type: tissue-based
- Stated conditions: Bone element
Answer with a number only, understood to be in %.

CC(C)C[C@H](C(=O)N[C@H]1C(=O)N[C@@H](CC(N)=O)C(=O)N[C@H]2C(=O)N[C@H]3C(=O)N[C@H](C(=O)N[C@H](C(=O)O)c4cc(O)cc(O)c4-c4cc3ccc4O)[C@H](O[C@H]3C[C@](C)(N)[C@@H](O)[C@H](C)O3)c3cc(Cl)c(c(Cl)c3)Oc3cc2cc(c3O[C@H]2O[C@@H](CO)[C@@H](O)[C@H](O)[C@H]2O[C@@H]2C[C@@](C)(NCc3ccc(-c4ccc(Cl)cc4)cc3)[C@@H](O)[C@@H](C)O2)Oc2ccc(cc2Cl)[C@H]1O)N(C)C(=O)CC(P(=O)(O)O)P(=O)(O)O 99.9

query: Activity lookup needed for CN[C@H](CC(C)C)C(=O)N[C@H]1C(=O)N[C@@H](CC(N)=O)C(=O)N[C@H]2C(=O)N[C@H]3C(=O)N[C@H](C(=O)N[C@H](C(=O)OCC(=O)NC(P(=O)(O)O)P(=O)(O)O)c4cc(O)cc(O)c4-c4cc3ccc4O)[C@H](O)c3cc(Cl)c(c(Cl)c3)Oc3cc2cc(c3O[C@H]2O[C@@H](CO)[C@@H](O)[C@H](O)[C@H]2O[C@@H]2C[C@@](C)(N)[C@@H](O)[C@@H](C)O2)Oc2ccc(cc2Cl)[C@H]1O , thanks.
result: 96.5

###

- Tested on: Staphylococcus aureus
- Assay overview: Antibacterial activity against Staphylococcus aureus ATCC 13709 in cation adjusted Mueller-Hinton broth by […] assay
- Format: functional
MIC: recorded values

CN[C@H](CC(C)C)C(=O)N[C@H]1C(=O)N[C@@H](CC(N)=O)C(=O)N[C@H]2C(=O)N[C@H]3C(=O)N[C@H](C(=O)N[C@H](C(=O)OCC(=O)Nc4ccc(CC(P(=O)(O)O)P(=O)(O)O)cc4)c4cc(O)cc(O)c4-c4cc3ccc4O)[C@H](O[C@H]3C[C@](C)(N)[C@@H](O)[C@H](C)O3)c3cc(Cl)c(c(Cl)c3)Oc3cc2cc(c3O[C@H]2O[C@@H](CO)[C@@H](O)[C@H](O)[C@H]2O[C@@H]2C[C@@](C)(NCc3ccc(-c4ccc(Cl)cc4)cc3)[C@@H](O)[C@@H](C)O2)Oc2ccc(cc2Cl)[C@H]1O > 32 µg/mL

query: Form field: reported MIC of CC(C)C[C@H](C(=O)N[C@H]1C(=O)N[C@@H](CC(N)=O)C(=O)N[C@H]2C(=O)N[C@H]3C(=O)N[C@H](C(=O)N[C@H](C(=O)O)c4cc(O)cc(O)c4-c4cc3ccc4O)[C@H](O[C@H]3C[C@](C)(N)[C@@H](O)[C@H](C)O3)c3cc(Cl)c(c(Cl)c3)Oc3cc2cc(c3O[C@H]2O[C@@H](CO)[C@@H](O)[C@H](O)[C@H]2O[C@@H]2C[C@@](C)(NCc3ccc(-c4ccc(Cl)cc4)cc3)[C@@H](O)[C@@H](C)O2)Oc2ccc(cc2Cl)[C@H]1O)N(C)C(=O)OCOC(=O)CCCC(P(=O)(O)O)P(=O)(O)O
result: 32 µg/mL
